Target Of Assay: Protein Rev (Human immunodeficiency virus type 1 group M subtype B (isolate WMJ22))
Method Notes: disruptors of Rev peptide-RRE RNA complex – biochemical, FRET, protein-RNA interaction, primary screen (AID 704);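 further: 0% = median DMSO wells and 100% = median Neomycin B control wells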
Measurement Parameters: Rev peptide-RRE RNA binding, at 8 µM
About 770 (0.79%) of roughly 97,000 compounds were called active.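 How the source made its calls: active means inhibition above the screen-wide mean plus 3 SD (cut at about 35% in these data); inactive means the rest.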 The sample holds actives, similar compounds and a random draw of the others, so the mix is not that of the screen.
Write down one outcome, taken from active, inactive

{"Compound": "COc1ccc(Nc2nc(=O)[nH]nc2C)cc1", "Discrete Label": "inactive"}

Hello, I am checking results. What call was entered for CCOC(=O)c1sc(C)c2c1NC(C)(c1cccc3ccccc13)NC2=O (stereo unspecified) ?
inactive

Hello, I am checking results. What call was entered for Cc1cc(C)n(C(=O)CCNC(=O)c2ccccc2Cl)n1 ?
inactive

Hello, I am checking results. What call was entered for CC(=O)Nc1cccc(/C(C)=N/NC(=O)c2ccccc2Cl)c1 ?
inactive

Hello, I am checking results. What call was entered for COc1cccc(C(=O)c2cc3ccc(O)cc3oc2=O)c1 ?
inactive

Hello, I am checking results. What call was entered for O=C(Nc1sc2c(c1-c1nc3ccccc3[nH]1)CCCC2)C1CC1 ?
inactive

Hello, I am checking results. What call was entered for CCOC(=O)C1=C(C)Nc2sc(C(=O)c3ccc(Br)cc3)c(N)c2C1c1ccc(C(=O)OC)cc1 (stereo unspecified) ?
inactive

Hello, I am checking results. What call was entered for COC(=O)C(C)n1cnc2c(nnn2-c2cccc(Cl)c2)c1=O (stereo unspecified) ?
inactive

* * *

Target Of Assay: Protein Rev (Human immunodeficiency virus type 1 group M subtype B (isolate WMJ22)) (UniProt P05866)
Sequence (P05866 whole entry, looked up): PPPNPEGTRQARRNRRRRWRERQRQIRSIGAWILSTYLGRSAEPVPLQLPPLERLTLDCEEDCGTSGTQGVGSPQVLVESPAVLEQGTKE
Method Notes: disruptors of Rev peptide-RRE RNA complex – biochemical, FRET, protein-RNA interaction, primary screen (AID 704);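 further: 0% = median DMSO wells and 100% = median Neomycin B control wells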
Measurement Parameters: Rev peptide-RRE RNA binding, at 8 µM
Out of some 97,000 compounds screened, about 770 (0.79%) were called active.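 Rule for the calls: active = inhibition above the screen-wide mean plus 3 SD (cut at about 35% in these data); inactive = the rest.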 The full list was thinned out, with actives kept by preference.
Write down one outcome, taken from TRUE (active), FALSE (inactive)

Consider the following illustrative entries.
{"Compound": "O=C(CN1C(=O)NC2(CCCC2)C1=O)Nc1ccc(F)c(F)c1F", "Discrete Label": "FALSE"}
{"Compound": "CCOc1ccc(CN(Cc2ccco2)S(=O)(=O)c2ccc(-n3cnnn3)c(OC)c2)cc1", "Discrete Label": "FALSE"}
{"Compound": "Cc1ccc(-n2c(C)cc(/C=N/Nc3ccc([N+](=O)[O-])cn3)c2C)c(C)c1", "Discrete Label": "FALSE"}

Hello, I am checking results. What call was entered for COC(=O)C1=C(C)NC(=O)NC1/C=C/c1ccccc1 (centres undefined) ?
FALSE

Hello, I am checking results. What call was entered for COc1ccc(-c2nn(C)c(=O)c3ccccc23)cc1NC(=O)COc1ccccc1 ?
FALSE

* * *

Target Of Assay: Protein Rev (Human immunodeficiency virus type 1 group M subtype B (isolate WMJ22)) (UniProt P05866)
Method Notes: disruptors of Rev peptide-RRE RNA complex – biochemical, FRET, protein-RNA interaction, primary screen (AID 704);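 further: 0% = median DMSO wells and 100% = median Neomycin B control wells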
Measurement Parameters: Rev peptide-RRE RNA binding, at 8 µM
Screen size: about 97,000 compounds; about 770 (0.79%) were called active.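 The calls were made as follows: active = inhibition above the screen-wide mean plus 3 SD (cut at about 35% in these data); inactive = the rest.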 Only a selection was taken, and actives are over-represented in it overall.
Write down one outcome, taken from class 1 for active, class 0 for inactive

Consider the following illustrative entries.
{"Molecule": "CCCN1CC=C2C(C#N)=C(N)C(C#N)(C#N)C(c3cc(OC)ccc3OC)C2C1 (stereo unspecified)", "Discrete Label": "class 1"}
{"Molecule": "O=c1c2ccccc2nc2n1C(CSCc1cccc(C(F)(F)F)c1)CS2 (stereo unspecified)", "Discrete Label": "class 0"}

Hello, I am checking results. What call was entered for CC1CCc2c(c3ccccc3[nH]c2=O)O1 (stereo unspecified) ?
class 0

Hello, I am checking results. What call was entered for CCOCCOCCC(C(=O)O)P(=O)(c1ccccc1)c1ccccc1 (stereo unspecified) ?
class 0

Hello, I am checking results. What call was entered for Cc1cccc(-c2nc3c(c(SCC(=O)N4CCOCC4)n2)CCCC3)c1 ?
class 0

Hello, I am checking results. What call was entered for Cc1ccc(NC(=O)Nc2ccc3oc(C)nc3c2)cc1 ?
class 0

Hello, I am checking results. What call was entered for Oc1ccc2ccc3cccc[n+]3c2c1 ?
class 1

Hello, I am checking results. What call was entered for O=C(CC12CC3CC(CC(C3)C1)C2)Nc1ccc2c(c1)COC2=O ?
class 0

Hello, I am checking results. What call was entered for CCOC(=O)c1ccccc1NS(=O)(=O)c1ccc(OC)cc1 ?
class 0

Hello, I am checking results. What call was entered for COC(=O)C1=C(C)OC(N)=C(C#N)C1c1cc(OC)ccc1OC (stereo unspecified) ?
class 0

Hello, I am checking results. What call was entered for CCN1CC=C2C(C#N)=C(N)C(C#N)(C#N)[C@H](c3ccoc3)[C@H]2C1 ?
class 1

* * *

Target Of Assay: Protein Rev (Human immunodeficiency virus type 1 group M subtype B (isolate WMJ22)) (UniProt P05866)
Method Notes: disruptors of Rev peptide-RRE RNA complex – biochemical, FRET, protein-RNA interaction, primary screen (AID 704);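 further: 0% = median DMSO wells and 100% = median Neomycin B control wells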
Measurement Parameters: Rev peptide-RRE RNA binding, at 8 µM
In all, about 97,000 compounds went through this assay and about 770 (0.79%) were called active.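 How the source made its calls: active means inhibition above the screen-wide mean plus 3 SD (cut at about 35% in these data); inactive means the rest.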 The sample as a whole holds a higher share of actives than the screen did.
Write down one outcome, taken from yes (1) for active, no (0) for inactive

Consider the following illustrative entries.
{"Molecule": "Cn1nc(C(F)(F)F)c(C(=O)Nc2cccc(C(F)(F)F)c2)c1SCc1ccc(Cl)cc1", "Discrete Label": "no (0)"}
{"Molecule": "CN1/C(=C\\C(=O)c2oc3ccccc3c2N)C(C)(C)c2ccccc21", "Discrete Label": "no (0)"}
{"Molecule": "Cc1noc(C)c1C(=O)OCC(=O)/C=C1\\N(C)c2ccccc2C1(C)C", "Discrete Label": "no (0)"}

Lab note: next molecule to report on.
Hello, I am checking results. What call was entered for O=C(Nc1ccc(-n2ccnc2P(=O)(O)c2ccccc2)cc1)c1ccccc1Br ?
no (0)

* * *

Target Of Assay: Protein Rev (Human immunodeficiency virus type 1 group M subtype B (isolate WMJ22)) (UniProt P05866)
Method Notes: disruptors of Rev peptide-RRE RNA complex – biochemical, FRET, protein-RNA interaction, primary screen (AID 704);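 further: 0% = median DMSO wells and 100% = median Neomycin B control wells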
Measurement Parameters: Rev peptide-RRE RNA binding, at 8 µM
In all, about 97,000 compounds went through this assay and about 770 (0.79%) were called active.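 The calls were made as follows: active = inhibition above the screen-wide mean plus 3 SD (cut at about 35% in these data); inactive = the rest.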 The sample holds actives, similar compounds and a random draw of the others, so the mix is not that of the screen.
Write down one outcome, taken from TRUE for active, FALSE for inactive

{"Molecule": "COCc1cc(C)nc2sc(C(=O)NC3CCCCC3)c(N)c12", "Discrete Label": "FALSE"}

Hello, I am checking results. What call was entered for COc1ccc(C(=O)N2CC3(C)CC2CC(C)(C)C3)cc1OC (centres undefined) ?
FALSE

Hello, I am checking results. What call was entered for CC(C)CCNC(=O)Cn1c(=O)oc2cc(S(=O)(=O)N3CC(C)CC(C)C3)ccc21 (centres undefined) ?
FALSE

Hello, I am checking results. What call was entered for C=CCc1ccc(OCCOc2cccc(/C=N/n3cnnc3)c2)c(OC)c1 ?
FALSE

Hello, I am checking results. What call was entered for CCOc1cc(/C=C2/N=C(c3ccc(C(C)(C)C)cc3)OC2=O)cc(Cl)c1OS(C)(=O)=O ?
FALSE

Hello, I am checking results. What call was entered for Cc1ccc(S(=O)(=O)/N=C(/Nc2ccccn2)c2ccc(Cl)cc2)cc1 ?
FALSE

Hello, I am checking results. What call was entered for COc1ccc(-c2cc(C3CCN(c4ncccc4[N+](=O)[O-])CC3)[nH]n2)cc1 ?
FALSE

Hello, I am checking results. What call was entered for Cc1ccc(Sc2cc(N3CCOCC3)nc(-c3ccccc3)n2)cc1 ?
FALSE

Hello, I am checking results. What call was entered for Cc1ccc(S(=O)(=O)C(C#N)c2nc3ccccc3nc2N2CCCC2)cc1C (centres undefined) ?
TRUE

* * *

Target Of Assay: Protein Rev (Human immunodeficiency virus type 1 group M subtype B (isolate WMJ22)) (UniProt P05866)
Method Notes: disruptors of Rev peptide-RRE RNA complex – biochemical, FRET, protein-RNA interaction, primary screen (AID 704);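 further: 0% = median DMSO wells and 100% = median Neomycin B control wells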
Measurement Parameters: Rev peptide-RRE RNA binding, at 8 µM, stronger effect = higher value
The whole screen tested about 97,000 compounds, of which about 770 (0.79%) were called active. This excerpt belongs to a sample that is enriched for actives.
List of inhibition values.
Please state the figure in %; there is no need to write the unit.

The examples below pair each entry with its known result.
{"Molecule": "CC(=O)Oc1ccc(NC(=O)CCC2CCCCC2)c(C(=O)O)c1", "Attribute Measured": "inhibition", "Measured Number": -1.47}
{"Molecule": "COc1ccccc1C(c1nnnn1C(C)(C)C)N1CCN(Cc2ccccc2)CC1 (stereo unspecified)", "Attribute Measured": "inhibition", "Measured Number": 5.48}
{"Molecule": "Cn1c2c(c(=O)n(C)c1=O)C(c1cccc([N+](=O)[O-])c1)Nc1ccccc1O2 (stereo unspecified)", "Attribute Measured": "inhibition", "Measured Number": 0.04}
{"Molecule": "Cc1ccc(-n2nc3cc(C)c(NC(=O)c4cccnc4)cc3n2)cc1", "Attribute Measured": "inhibition", "Measured Number": 6.32}
{"Molecule": "Cc1ccccc1N/N=C/c1ccc(N2CCOCC2)cc1", "Attribute Measured": "inhibition", "Measured Number": 6.17}

For reference, reported inhibition for CCOC(=O)C1=C(CN2CCc3ccccc32)NC(=O)NC1c1ccc(Cl)cc1 (stereo unspecified) stands at 10.3

Each recorded value in this set is attributed to PubChem BioAssay AID704.
